assay text: phase I pharmacokinetics in blood (dried blood spot, LC-MS/MS, noncompartmental analysis)
Type: in vivo, human
experimental setup: human, whole blood (dried blood spot), intravenous, 570 mg/m2, 570 mg/m^2, cycle 1 Day 22, N = 17, mean ± SD; read-out: AUC0–168
property: AUC(0-t)

Entry under test: O=C(NCCN1CCOCC1)Nc1nc2ccc(Sc3nnc4ccc(-c5ccc(F)cc5)nn34)cc2s1 . Its AUC(0-t) was 35100 ng·h/mL

====

assay text: phase I pharmacokinetics in blood (dried blood spot, LC-MS/MS, noncompartmental analysis)
Type: in vivo, human
experimental setup: human, whole blood (dried blood spot), intravenous, 570 mg/m2, 570 mg/m^2, cycle 1 Day 22, N = 17, mean ± SD, blood
property: Cmax
Number first, unit second.

Record summary for O=C(NCCN1CCOCC1)Nc1nc2ccc(Sc3nnc4ccc(-c5ccc(F)cc5)nn34)cc2s1 : reported Cmax = 6330 ng/mL

====

assay text: phase I pharmacokinetics in blood (dried blood spot, LC-MS/MS, noncompartmental analysis)
Assay type: in vivo, human
experimental setup: human, whole blood (dried blood spot), intravenous, 440 mg/m2, 440 mg/m^2, cycle 1 Day 22, N = 3, mean ± SD; read-out: t1/2z (converted)
property: half-life (h)
Please state the figure in h; there is no need to write the unit.

Per the records, this molecule ( O=C(NCCN1CCOCC1)Nc1nc2ccc(Sc3nnc4ccc(-c5ccc(F)cc5)nn34)cc2s1 ) has half-life equal to 27.5

====

assay text: phase I pharmacokinetics in blood (dried blood spot, LC-MS/MS, noncompartmental analysis)
Assay type: in vivo, human
experimental setup: human, whole blood (dried blood spot), intravenous, 570 mg/m2, 570 mg/m^2, cycle 1 Day 1, n = 20, mean ± SD
property: AUC (ng·h/mL)
The reply should contain only the number, in ng·h/mL.

response.value for O=C(NCCN1CCOCC1)Nc1nc2ccc(Sc3nnc4ccc(-c5ccc(F)cc5)nn34)cc2s1 (field: AUC) = 36200

====

assay text: phase I pharmacokinetics in blood (dried blood spot, LC-MS/MS, noncompartmental analysis)
Assay type: in vivo, human
experimental setup: human, whole blood (dried blood spot), intravenous, 440 mg/m2, 440 mg/m^2, cycle 1 Day 1, n = 2, mean; read-out: CL (converted)
property: clearance (mL/min)
I only need the number, in mL/min, no unit after it.

Recorded clearance (compound O=C(NCCN1CCOCC1)Nc1nc2ccc(Sc3nnc4ccc(-c5ccc(F)cc5)nn34)cc2s1 ): 530

====

assay text: phase I pharmacokinetics in blood (dried blood spot, LC-MS/MS, noncompartmental analysis)
Format: in vivo, human
experimental setup: human, whole blood (dried blood spot), intravenous, 440 mg/m2, 440 mg/m^2, cycle 1 Day 1, N = 3, mean ± SD, blood
Experimental: Blood samples for pharmacokinetic analysis were acquired using dried blood-spot technology on days 1 and 22 of cycle 1 at several time points before, during, and after infusion (up to 168 hours after administration). Drug concentrations were determined by a validated method of liquid chromatography and tandem mass spectrometry (limit of quantification 2 ng/mL). […]
property: Cmax (ng/mL)
Response body: numeric value in ng/mL, unit text excluded.

O=C(NCCN1CCOCC1)Nc1nc2ccc(Sc3nnc4ccc(-c5ccc(F)cc5)nn34)cc2s1 has a reported Cmax of 6390

====

assay text: phase I pharmacokinetics in blood (dried blood spot, LC-MS/MS, noncompartmental analysis)
Assay type: in vivo, human
experimental setup: human, whole blood (dried blood spot), intravenous, 570 mg/m2, 570 mg/m^2, cycle 1 Day 22, N = 17, mean ± SD; read-out: t1/2z (converted)
property: half-life (h)
Give the value in h but do not write h after it.

Looking up O=C(NCCN1CCOCC1)Nc1nc2ccc(Sc3nnc4ccc(-c5ccc(F)cc5)nn34)cc2s1 , I see its half-life listed as 21.2
